Entry source: patent US8557833B2

# tested_on: JAK-2 (Homo sapiens)
# Sequence (O60674 whole entry, species assumed): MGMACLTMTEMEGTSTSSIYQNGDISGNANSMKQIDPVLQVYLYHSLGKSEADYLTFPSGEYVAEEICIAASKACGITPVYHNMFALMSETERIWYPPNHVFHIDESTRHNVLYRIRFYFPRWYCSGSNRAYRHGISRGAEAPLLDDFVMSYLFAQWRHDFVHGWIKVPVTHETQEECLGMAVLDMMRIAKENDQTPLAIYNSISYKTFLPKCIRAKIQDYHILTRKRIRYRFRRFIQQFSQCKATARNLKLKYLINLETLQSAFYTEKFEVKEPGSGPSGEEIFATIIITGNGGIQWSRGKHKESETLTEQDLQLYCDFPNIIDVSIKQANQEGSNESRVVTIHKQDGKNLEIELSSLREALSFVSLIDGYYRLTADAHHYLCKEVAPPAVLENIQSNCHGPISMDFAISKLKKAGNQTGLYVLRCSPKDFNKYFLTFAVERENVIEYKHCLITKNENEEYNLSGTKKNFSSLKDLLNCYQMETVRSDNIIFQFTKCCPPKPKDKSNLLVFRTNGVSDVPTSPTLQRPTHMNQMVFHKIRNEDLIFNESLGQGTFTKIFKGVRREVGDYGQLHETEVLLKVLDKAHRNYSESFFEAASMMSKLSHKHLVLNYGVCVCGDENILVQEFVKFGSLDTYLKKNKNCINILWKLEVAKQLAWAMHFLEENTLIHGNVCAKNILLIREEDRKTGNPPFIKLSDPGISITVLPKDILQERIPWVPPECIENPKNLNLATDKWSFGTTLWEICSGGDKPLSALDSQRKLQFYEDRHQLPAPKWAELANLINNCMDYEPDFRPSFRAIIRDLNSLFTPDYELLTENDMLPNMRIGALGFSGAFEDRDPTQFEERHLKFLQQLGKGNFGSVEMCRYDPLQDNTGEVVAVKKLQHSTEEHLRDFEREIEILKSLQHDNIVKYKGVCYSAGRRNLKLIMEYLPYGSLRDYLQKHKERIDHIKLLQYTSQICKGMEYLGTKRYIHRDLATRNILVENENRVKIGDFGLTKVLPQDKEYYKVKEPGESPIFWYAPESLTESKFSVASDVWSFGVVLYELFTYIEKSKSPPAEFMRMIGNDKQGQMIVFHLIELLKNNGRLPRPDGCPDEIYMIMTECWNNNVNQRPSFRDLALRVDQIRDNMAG
Task for the reader: assign each of the following molecules its reported Ki.
Answers are plain numbers, in nM.

Give Ki for all molecules that follow.
1. Cc1cc(Nc2cc(N3CCC3)nc(Sc3ccc(NC(=O)c4cc(Cl)ccc4Cl)cc3)n2)n[nH]1
2. Cc1cc(Nc2cc(N3CCC3)nc(Sc3ccc(NC(=O)c4cccc(C(F)(F)F)c4F)cc3)n2)n[nH]1
3. CCc1cccc(C(=O)Nc2ccc(Sc3nc(Nc4cc(C)[nH]n4)cc(N4CCC4)n3)cc2)c1Cl

1: 600; 2: 130; 3: 500

Give Ki for all molecules that follow.
1. Cc1cc(Nc2cc(N3CCC3)nc(Sc3ccc(NC(=O)c4ccccc4F)cc3)n2)[nH]n1
2. Cc1cc(Nc2cc(N3CCC3)nc(Sc3ccc(NC(=O)c4cccc(Cl)c4F)cc3)n2)n[nH]1
3. Cc1cc(Nc2cc(N3CCC3)nc(Sc3ccc(NC(=O)c4ccccc4C(F)F)cc3)n2)[nH]n1

61
46
410
